Experiment: inhibitors of TNF-alpha triggered necroptosis, primary screen, cell-based, Jurkat FADD-/-, single concentration (AID 463075);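 further: necroptosis triggered by 40 ng/mL TNF-alpha added together with compound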
Details: Jurkat FADD-/- TNF necroptosis rescue, ATP luminescence, 24 h; at 10 µM; active compounds read high; 0 = TNF only, 100 = no-TNF cells
The whole screen tested about 220,000 compounds, of which about 150 (0.068%) were called active. The full list was thinned out, with actives kept by preference.
Each entry below carries its recorded activation (protection from cell death).
quantityKind: activation (protection from cell death) (%)

                                    compound                             quantitykind  measvalue
 0             CNC(=O)c1nnc(Cc2ccc(Cl)cc2)o1  activation (protection from cell death)       5.11
 1  COc1ccc(Cl)cc1NC(=O)[C@@H]1CCCN1C(=O)c1cccs1  activation (protection from cell death)       2.67
 2  CCn1c2ccccc2c2cc(NC(=O)C/C(C)=N/NC(=O)c3ccccc3N)ccc21  activation (protection from cell death)      -9.27
 3                COc1ccc(C(=S)Nc2ccccc2)cc1  activation (protection from cell death)      -4.07
 4              CCCCCCC12CCC(C(=O)O)(CC1)CC2  activation (protection from cell death)      -1.53
 5  CCc1cccc(CC)c1NC(=O)COc1ccccc1C(=O)c1cc(C#N)c(=O)n(C2CCCCC2)c1  activation (protection from cell death)       1.06
 6          COc1ccc(Br)cc1C(=O)Nc1cccc(C)c1C  activation (protection from cell death)      0.986
 7  COc1ccc(/C(=N\O)c2nccc3cc(OC)c(OC)cc23)cc1OC  activation (protection from cell death)      0.543
 8         CCCOc1ccc(Cc2c(Cl)nc(SC)nc2NC)cc1  activation (protection from cell death)      -4.22
 9  COc1ccc(N(CC(=O)NC2CCCCC2)S(=O)(=O)c2c(C)[nH]c(=O)[nH]c2=O)cc1  activation (protection from cell death)     -0.527
10  COc1cccc(CC(=O)N2CCCC(CCC(=O)N3CCN(c4ccccn4)CC3)C2)c1 (stereo not drawn)  activation (protection from cell death)       2.68
11  O=C(c1cccnc1)N(c1cc2sc(=O)oc2c2ccccc12)S(=O)(=O)c1ccccc1  activation (protection from cell death)      -6.46
12  CN(C)CCCn1c(SCCN2C(=O)c3ccccc3C2=O)nc2ccccc2c1=O  activation (protection from cell death)      0.858
13  Cc1ccc(CC2S/C(=C(/C#N)C(=O)N3CCOCC3)N(c3ccccc3)C2=O)cc1 (stereo not drawn)  activation (protection from cell death)     -0.961
14                Cc1c([N+](=O)[O-])c(N)nn1C  activation (protection from cell death)      0.221
15         COc1ccc(OCc2cn3c(C)cc(C)nc3n2)cc1  activation (protection from cell death)       1.17
16  CCc1cc(CNC(=O)CC2C(=O)NCCN2Cc2ccccc2C(F)(F)F)on1 (stereo not drawn)  activation (protection from cell death)       1.76
17  CC1COc2ccccc2N1S(=O)(=O)c1ccccc1 (stereo not drawn)  activation (protection from cell death)     -0.217
18  COc1ccc(CCN2C(=O)CC(N3CCC(C(N)=O)CC3)C2=O)cc1OC (stereo not drawn)  activation (protection from cell death)       1.77
19  COc1ccc(-c2ccc(CCC(=O)O)n2-c2ccc(O)cc2)cc1  activation (protection from cell death)      0.347
20  Cc1nc2ccccc2nc(=O)c1NNc1ccc([N+](=O)[O-])cc1  activation (protection from cell death)       3.59
21       CC(C)(C)c1ccc(/C=C2\SC(=O)N=C2N)cc1  activation (protection from cell death)       2.08
22  CNC(=O)c1c(NC(NC(=O)c2ccco2)C(=O)c2ccc(Cl)cc2)sc2c1CCCC2 (stereo not drawn)  activation (protection from cell death)      0.421
